# assay_protocol: gradient 5% acetonitrile 3 min, to 50% in 2 min, to 85% in 15 min, held 3 min, 100 µL/min
# cond: column: Zorbax Extend-C18 2.1 x 50 mm; eluents: water / acetonitrile, 0.1% formic acid
experimental_endpoint: RP-LC retention time (s)

compound	RP-LC retention time [s]
COc1ccc(F)cc1S(=O)(=O)N1C[C@@H]2C[C@H](NC(=O)c3cccs3)[C@H]1C2	834
O=C(NCCc1csc(-c2cccs2)n1)C1CCN(C(=O)c2ccccc2)CC1	740
CS(=O)(=O)N1CCN(C(=O)CCc2csc(NC(=O)c3ccc(F)cc3)n2)CC1	666
CC(=O)Nc1c(C)nn(-c2ccccc2)c1N1CCC(C(=O)NCC2COCCO2)CC1 (stereo not given)	605
COc1ccc(-c2nc(C)cc(C)c2CNS(=O)(=O)c2ccc(C)cc2)cc1	670

====

# assay_protocol: gradient 5% acetonitrile 3 min, to 50% in 2 min, to 85% in 15 min, held 3 min, 100 µL/min
# cond: column: Zorbax Extend-C18 2.1 x 50 mm; eluents: water / acetonitrile, 0.1% formic acid
experimental_endpoint: RP-LC retention time (s)

Worked examples follow.
compound	value_measured
CC(Oc1ccccc1)C(=O)N(C)CC1(C)CCOCC1 (stereo not given)	685
Cc1cc(C)cc(C(=O)N2CCN(c3nc(C)cc(N4CCCC4)n3)CC2)c1	735
CCc1cccc(C)c1NC(=O)Cn1nc2n(c1=O)CCCC2	717
COc1ccc(OC)c(NC(=O)NCc2cccn2Cc2ccccc2)c1	927
CCS(=O)(=O)c1nc2ccc(NS(=O)(=O)c3ccc4c(c3)OCCO4)cc2s1	826
Cc1ccccc1CN1CC(=O)NCC12CCCC2	573

(I) Cc1ccc(S(=O)(=O)N2CCC(n3cnnc3C3CC3)CC2)cc1Cl
(II) COc1ccc(NC(=O)c2cn(-c3cc(N4CCCC(C)C4)ncn3)cn2)c(OC)c1 (stereo not given)
QUERY: When I and II are compared, which has the higher number for RP-LC retention time? Write down the label of the entry you select.
RESULT: II
(II: 1170 s, I: 809 s)

====

# assay_protocol: gradient 5% acetonitrile 3 min, to 50% in 2 min, to 85% in 15 min, held 3 min, 100 µL/min
# cond: column: Zorbax Extend-C18 2.1 x 50 mm; eluents: water / acetonitrile, 0.1% formic acid
experimental_endpoint: RP-LC retention time (s)

Examples from the recorded data:
compound	unit_descriptor	value_measured
O=C(C1CCCN(S(=O)(=O)N2CCCCC2)C1)N1CCN(Cc2ccc3c(c2)OCO3)CC1 (stereo not given)	s	679
CCC1CCCCN1C(=O)c1cnc2nc(C)ccc2c1Nc1ccc(OC)cc1 (stereo not given)	s	665
O=C(Nc1nc2ccc([N+](=O)[O-])cc2s1)c1ccc(Br)s1	s	1040
COc1ccc(C2CC(=O)N(c3ccc(C(C)C)cc3)C(=O)C2)cc1OC	s	987
CC(C)C(=O)Nc1ccc(OCc2cc(C(=O)NC3CCCC3)no2)cc1	s	837

(A) Cc1[nH]c(C(=O)N2CCC(CC(=O)N3CCN(c4ccccc4)CC3)CC2)c(C)c1C(=O)OC(C)C
(B) O=C(c1ccco1)N1CCC(n2cnnc2-c2ccccc2)CC1
QUERY: Endpoint returns the identifier whose RP-LC retention time is numerically larger, either A or B . Please reply using the label of the selected record.
RESULT: A
(A: 939 s, B: 639 s)
